Attribution: patent US12383631

Target: T1, human IL-18BP-His (human, UniProt O95998 31-194, limits assumed)
T1 construct: also called His-tagged human IL-18BP; not shown: His tag
T1 sequence (looked up): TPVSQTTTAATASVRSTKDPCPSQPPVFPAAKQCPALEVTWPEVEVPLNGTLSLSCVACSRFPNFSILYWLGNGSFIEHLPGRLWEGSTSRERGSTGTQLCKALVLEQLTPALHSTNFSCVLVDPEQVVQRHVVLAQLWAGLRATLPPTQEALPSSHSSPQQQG
Experiment: AlphaLISA of free IL-18BP
pKd for assorted binders
Give only the number. pKd is defined as minus log10 of concentration in molar units.

Field: example entries. Status: answers known.
[[record]]
binder = "IL-18 polypeptide C151 (ligand, also called V11I, D35A, C38A, K53A, C76A, C127A) YFGKLESKLSIIRNLNDQVLFIDQGNRPLFEDMTASDARDNAPRTIFIISMYADSQPRGMAVTISVKCEKISTLSAENKIISFKEMNPPDNIKDTKSDIIFFQRSVPGHDNKMQFESSSYEGYFLAAEKERDLFKLILKKEDELGDRSIMFTVQNED"
measured = 8.54

[[record]]
binder = "IL-18 polypeptide C142 (ligand, also called Y1M, E6K, V11I, C38A, K53A, T63A, C76A, C127A) MFGKLKSKLSIIRNLNDQVLFIDQGNRPLFEDMTDSDARDNAPRTIFIISMYADSQPRGMAVAISVKCEKISTLSAENKIISFKEMNPPDNIKDTKSDIIFFQRSVPGHDNKMQFESSSYEGYFLAAEKERDLFKLILKKEDELGDRSIMFTVQNED"
measured = 8.65

[[record]]
binder = "IL-18 polypeptide C143 (ligand, also called V11I, C38A, K53A, C76A, C127A) YFGKLESKLSIIRNLNDQVLFIDQGNRPLFEDMTDSDARDNAPRTIFIISMYADSQPRGMAVTISVKCEKISTLSAENKIISFKEMNPPDNIKDTKSDIIFFQRSVPGHDNKMQFESSSYEGYFLAAEKERDLFKLILKKEDELGDRSIMFTVQNED"
measured = 8.05

[[record]]
binder = "IL-18 polypeptide C160 (ligand, also called V11I, C38A, K53A, C76A, D110A, C127A) YFGKLESKLSIIRNLNDQVLFIDQGNRPLFEDMTDSDARDNAPRTIFIISMYADSQPRGMAVTISVKCEKISTLSAENKIISFKEMNPPDNIKDTKSDIIFFQRSVPGHANKMQFESSSYEGYFLAAEKERDLFKLILKKEDELGDRSIMFTVQNED"
measured = 9.15


Could you share which pKd value was measured for IL-18 polypeptide C149 (ligand, also called V11I, E31A, C38A, K53A, C76A, C127A) YFGKLESKLSIIRNLNDQVLFIDQGNRPLFADMTDSDARDNAPRTIFIISMYADSQPRGMAVTISVKCEKISTLSAENKIISFKEMNPPDNIKDTKSDIIFFQRSVPGHDNKMQFESSSYEGYFLAAEKERDLFKLILKKEDELGDRSIMFTVQNED ?
9.19

Could you share which pKd value was measured for IL-18 polypeptide C167 (ligand, also called V11I, C38A, C76A, S105I, C127A) YFGKLESKLSIIRNLNDQVLFIDQGNRPLFEDMTDSDARDNAPRTIFIISMYKDSQPRGMAVTISVKCEKISTLSAENKIISFKEMNPPDNIKDTKSDIIFFQRIVPGHDNKMQFESSSYEGYFLAAEKERDLFKLILKKEDELGDRSIMFTVQNED ?
10.40

Could you share which pKd value was measured for IL-18 polypeptide C147 (ligand, also called V11I, C38A, K53A, D54A, C76A, C127A) YFGKLESKLSIIRNLNDQVLFIDQGNRPLFEDMTDSDARDNAPRTIFIISMYAASQPRGMAVTISVKCEKISTLSAENKIISFKEMNPPDNIKDTKSDIIFFQRSVPGHDNKMQFESSSYEGYFLAAEKERDLFKLILKKEDELGDRSIMFTVQNED ?
7.59

Could you share which pKd value was measured for IL-18 polypeptide of SEQ ID NO: 59 (E6K, C38A, K53A) (ligand) YFGKLKSKLSVIRNLNDQVLFIDQGNRPLFEDMTDSDARDNAPRTIFIISMYADSQPRGMAVTISVKCEKISTLSCENKIISFKEMNPPDNIKDTKSDIIFFQRSVPGHDNKMQFESSSYEGYFLACEKERDLFKLILKKEDELGDRSIMFTVQNED ?
7.44

Could you share which pKd value was measured for IL-18 polypeptide C158 (ligand, also called V11I, C38A, K53A, C76A, G108A, C127A) YFGKLESKLSIIRNLNDQVLFIDQGNRPLFEDMTDSDARDNAPRTIFIISMYADSQPRGMAVTISVKCEKISTLSAENKIISFKEMNPPDNIKDTKSDIIFFQRSVPAHDNKMQFESSSYEGYFLAAEKERDLFKLILKKEDELGDRSIMFTVQNED ?
8.91
